# TARGET: Protein cereblon/Stimulator of interferon genes protein (Homo sapiens, UniProt Q96SW2+Q86WV6)
# Sequence (Q86WV6 whole entry, looked up): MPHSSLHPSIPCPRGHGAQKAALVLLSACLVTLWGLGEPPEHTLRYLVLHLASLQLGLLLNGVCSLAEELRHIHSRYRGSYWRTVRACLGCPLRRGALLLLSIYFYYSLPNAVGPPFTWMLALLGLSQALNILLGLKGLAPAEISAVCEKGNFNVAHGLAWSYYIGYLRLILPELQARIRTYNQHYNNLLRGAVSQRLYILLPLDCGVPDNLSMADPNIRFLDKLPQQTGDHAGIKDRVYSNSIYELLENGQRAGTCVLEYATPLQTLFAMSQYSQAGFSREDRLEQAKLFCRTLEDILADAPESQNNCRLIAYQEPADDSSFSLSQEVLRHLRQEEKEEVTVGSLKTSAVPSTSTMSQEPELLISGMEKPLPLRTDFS
# Sequence (Q96SW2 whole entry, looked up): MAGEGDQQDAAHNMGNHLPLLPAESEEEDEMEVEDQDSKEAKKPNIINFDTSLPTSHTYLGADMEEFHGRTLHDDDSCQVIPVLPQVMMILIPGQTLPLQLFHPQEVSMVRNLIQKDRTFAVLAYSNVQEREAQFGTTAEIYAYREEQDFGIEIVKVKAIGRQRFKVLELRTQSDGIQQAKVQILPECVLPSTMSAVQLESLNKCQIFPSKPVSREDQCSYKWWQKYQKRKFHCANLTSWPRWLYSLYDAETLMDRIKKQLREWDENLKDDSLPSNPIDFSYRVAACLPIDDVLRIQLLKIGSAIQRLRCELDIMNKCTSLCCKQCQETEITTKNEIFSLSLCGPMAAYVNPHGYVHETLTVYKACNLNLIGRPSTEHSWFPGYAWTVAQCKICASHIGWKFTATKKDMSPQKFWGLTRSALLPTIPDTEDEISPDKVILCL
# ASSAY_PROCEDURE: PROTAC activity at CRBN/STING in human THP-1 cells assessed as induction of STING degradation at 10 uM incubated for 24 hrs by western blot analysis
# Format: cell-based
Active and inactive are the calls of the source. The calls are words filed in the database; no cut-off is given here.
METRIC: Activity

For orientation, consider the following solved cases.
{"COMPOUND": "O=C1CCC(N2C(=O)c3cccc(OCc4cn(CCCC(=O)OCc5ccc(NC(=O)c6ccc([N+](=O)[O-])o6)cc5)nn4)c3C2=O)C(=O)N1 (centres undefined)", "READING": "Active"}
{"COMPOUND": "O=C1CCC(N2C(=O)c3cccc(OC(=O)CCCc4cn(CCCCCC(=O)Oc5ccc(NC(=O)c6ccc([N+](=O)[O-])o6)cc5)nn4)c3C2=O)C(=O)N1 (centres undefined)", "READING": "71%"}
{"COMPOUND": "O=C1CCC(N2C(=O)c3cccc(OCc4cn(CCCCCC(=O)OCCc5ccc(NC(=O)c6ccc([N+](=O)[O-])o6)cc5)nn4)c3C2=O)C(=O)N1 (centres undefined)", "READING": "82%"}
{"COMPOUND": "O=C1CCC(N2C(=O)c3ccc(OCc4cn(CCCC(=O)OCCc5ccc(NC(=O)c6ccc([N+](=O)[O-])o6)cc5)nn4)cc3C2=O)C(=O)N1 (centres undefined)", "READING": "76%"}
{"COMPOUND": "O=C1CCC(N2C(=O)c3cccc(OCc4cn(CCCCCC(=O)OCc5ccc(NC(=O)c6ccc([N+](=O)[O-])o6)cc5)nn4)c3C2=O)C(=O)N1 (centres undefined)", "READING": "Active"}
{"COMPOUND": "O=C1CCC(N2C(=O)c3cccc(OCc4cn(CC(=O)OCc5ccc(NC(=O)c6ccc([N+](=O)[O-])o6)cc5)nn4)c3C2=O)C(=O)N1 (centres undefined)", "READING": "Active"}
{"COMPOUND": "O=C1CCC(N2C(=O)c3cccc(OCc4cn(CCCC(=O)Oc5ccc(NC(=O)c6ccc([N+](=O)[O-])o6)cc5)nn4)c3C2=O)C(=O)N1 (centres undefined)", "READING": "Active"}

Prompt line: For the compound O=C1CCC(N2C(=O)c3ccc(OCc4cn(CC(=O)OCCc5ccc(NC(=O)c6ccc([N+](=O)[O-])o6)cc5)nn4)cc3C2=O)C(=O)N1 (centres undefined) , report Activity.
Response line: Active

Hello, the source for this data is ChEMBL document CHEMBL6127068, in case you need it.
